# target_under_test: 5-HT2A receptor (Homo sapiens (Human))
# Sequence (P28223 whole entry): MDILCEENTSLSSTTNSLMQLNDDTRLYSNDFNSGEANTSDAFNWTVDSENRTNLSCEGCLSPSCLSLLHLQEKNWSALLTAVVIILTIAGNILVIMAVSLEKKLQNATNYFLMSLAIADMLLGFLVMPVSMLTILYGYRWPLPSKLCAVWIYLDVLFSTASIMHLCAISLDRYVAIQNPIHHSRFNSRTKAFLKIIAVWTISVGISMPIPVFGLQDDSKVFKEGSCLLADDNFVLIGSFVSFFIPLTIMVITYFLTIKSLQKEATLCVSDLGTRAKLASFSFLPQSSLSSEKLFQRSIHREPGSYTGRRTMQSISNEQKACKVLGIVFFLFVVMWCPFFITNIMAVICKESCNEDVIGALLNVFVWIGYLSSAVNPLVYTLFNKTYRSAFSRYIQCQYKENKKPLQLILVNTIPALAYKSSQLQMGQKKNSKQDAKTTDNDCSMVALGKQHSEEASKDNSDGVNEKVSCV
# experiment_summary: 5-HT2A receptor Gαq BRET (G protein trimer dissociation);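 further: cells transfected with 5-HT2A receptor, Gαq-Rluc, Gβ3 and Gγ9-GFP, BRET read with coelenterazine 400a (5 µM) across a compound dilution series in duplicate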
# Assay type: cell-based
# condition_set: read-out: Gαq BRET (Emax %)
Returns: string. Value is label 1 if measured Emax is below 20%, and label 0 if it is greater than or equal to it.

Confirm or reject: Emax of O=C(N[C@H]1CC[C@H](CCN2CCN3c4cccc5scc(c45)CC3C2)CC1)N1CCCCC1 (stereo partly shown) lies strictly below 20%
label 1

Confirm or reject: Emax of COc1cc2c(cc1OC)C(=O)N(CCCCN1CCN3c4cccc5scc(c45)CC3C1)C2 (stereo not shown) lies strictly below 20%
label 1

Confirm or reject: Emax of O=C1[C@H]2CCCC[C@H]2C(=O)N1CCCCN1CCN2c3cccc4scc(c34)CC2C1 (stereo partly shown) lies strictly below 20%
label 0

Confirm or reject: Emax of O=C1CCc2ccc(OCCCCN3CCN4c5cccc6scc(c56)CC4C3)cc2N1 (stereo not shown) lies strictly below 20%
label 1

Confirm or reject: Emax of c1cc2c3c(csc3c1)CC1CN(CCCCOc3ccc4scnc4c3)CCN21 (stereo not shown) lies strictly below 20%
label 1

Confirm or reject: Emax of O=C1c2ccccc2CN1CCCCN1CCN2c3cccc4scc(c34)CC2C1 (stereo not shown) lies strictly below 20%
label 1

Confirm or reject: Emax of CCCN1CCN2c3cccc4scc(c34)CC2C1 (stereo not shown) lies strictly below 20%
label 1

Confirm or reject: Emax of c1ccc(-c2cccc(CN3CCN4c5cccc6scc(c56)CC4C3)c2)cc1 (stereo not shown) lies strictly below 20%
label 0

Confirm or reject: Emax of O=c1ccc2ccc(OCCCCN3CCN4c5cccc6scc(c56)CC4C3)cc2[nH]1 (stereo not shown) lies strictly below 20%
label 1

Confirm or reject: Emax of O=C(N[C@H]1CC[C@H](CCN2CCN3c4cccc5scc(c45)CC3C2)CC1)N1CCCC1 (stereo partly shown) lies strictly below 20%
label 1

Confirm or reject: Emax of OCCN1CCN2c3cccc4scc(c34)CC2C1 (stereo not shown) lies strictly below 20%
label 0

Confirm or reject: Emax of O=c1ccc2ccc(OCCCN3CCN4c5cccc6scc(c56)CC4C3)cc2[nH]1 (stereo not shown) lies strictly below 20%
label 0

Confirm or reject: Emax of O=C1c2ccccc2CCCN1CCCCN1CCN2c3cccc4scc(c34)CC2C1 (stereo not shown) lies strictly below 20%
label 1

Confirm or reject: Emax of CN(C)C(=O)N[C@H]1CC[C@H](CCN2CCN3c4cccc5scc(c45)CC3C2)CC1 (stereo partly shown) lies strictly below 20%
label 1

Confirm or reject: Emax of O=C1NCCN1c1cccc(CN2CCN3c4cccc5scc(c45)CC3C2)c1 (stereo not shown) lies strictly below 20%
label 0

Confirm or reject: Emax of Fc1ccc(-c2cncc(CN3CCN4c5cccc6scc(c56)CC4C3)c2)cc1 (stereo not shown) lies strictly below 20%
label 0

Confirm or reject: Emax of Fc1ccc(CCN2CCN3c4cccc5scc(c45)CC3C2)cc1 (stereo not shown) lies strictly below 20%
label 0

Confirm or reject: Emax of O=C(CN1CCN2c3cccc4scc(c34)CC2C1)c1ccc(F)cc1 (stereo not shown) lies strictly below 20%
label 0
